Below are Ki values recorded for human cathepsin L (Homo sapiens, UniProt P07711).
observedProperty: Ki

- Cc1csc(NC(=O)C(=O)C2(NC(=O)[C@H](CC3(C)CCCC3)NC(=O)OC(C)(C)C)CCC2)n1 [Example 20]: > 200000 nM
- COC1CC(NC(=O)[C@H](CC2(F)CCCC2)NC(=O)OC(C)(C)C)(C(=O)C(=O)Nc2ccn(C)n2)C1 (single isomer, unassigned) [Example 73]: 1100 nM
- Cn1ccc(NC(=O)C(=O)C2(NC(=O)[C@H](CC3(F)CCCC3)NC(=O)OC(C)(C)C)CC(F)(F)C2)n1 [Example 10]: 360 nM
- CC(CF)OC(=O)NC(CC1(F)CCCC1)C(=O)NC1(C(=O)C(=O)Nc2ccn(C)n2)CCC1 (stereo not drawn) [Example 56]: 990 nM
- CCOC(=O)N[C@@H](CC1(F)CCCC1)C(=O)NC1(C(=O)C(=O)NCCCN2CCN(C)CC2)CCC1 [Example 63]: 4900 nM
- CC(C)(C)OC(=O)N[C@@H](CC1(F)CCCC1)C(=O)NC1(C(=O)C(=O)Nc2cc[nH]n2)CCC1 [Example 57]: 720 nM
- Cn1cnc(NC(=O)C(=O)C2(NC(=O)[C@H](CC3(C)CCCC3)NC(=O)OC(C)(C)C)CCC2)c1 [Example 11]: 1100 nM
- CC1(C[C@H](NC(=O)OC(C)(C)C)C(=O)NC2(C(=O)C(=O)NC3CC3)CCC2)CCCC1 [Example 24]: 10000 nM
- [2H]C([2H])([2H])n1ccc(NC(=O)C(=O)C2(NC(=O)C(CC3(F)CCCC3)NC(=O)OC(C)(C)C)CC(F)C2)n1 (stereo not drawn) [Example 50]: 560 nM
